System: SW620 MTHFD2-/-
experimentalProtocol: EC50 for viability (resazurin, 96 h)
conditionDescription: RPMI+GlutaMAX (5% dFBS, 1% P/S); metabolite supplement: Hypoxanthine + Formate
metric: EC50 for viability (nM)
Expressed in nM, but write only the number.

[ask] Endpoint output: EC50 for viability of CN(Cc1cnc2nc(N)nc(N)c2n1)c1ccc(C(=O)N[C@@H](CCC(=O)O)C(=O)O)cc1 [methotrexate] . Value?
[reply] 12.9

[ask] Could you do the same for Nc1nc(N)c(NC(=O)Nc2cnc(C(=O)N[C@@H](CCc3nnn[nH]3)C(=O)O)c(F)c2)c(=O)[nH]1 , please?
[reply] 15.8

[ask] Same thing, different compound: Nc1nc(N)c(CC(=O)Nc2cnc(C(=O)N[C@@H](CCC(=O)O)C(=O)O)c(F)c2)c(=O)[nH]1
[reply] 30.1
